- Tested on: HFF cells
- condition-parameters: read-out: HFF ctotoxicity EC50 Cytostatic; uninfected HFF, 6 days, first (low concentration) phase, growth inhibition
pEC50: −log10 of the molar value.

structure	assay-target	pEC50
O=c1[nH]c(=O)n([C@@H]2O[C@H](CO)[C@@H](O)[C@H]2O)cc1F	HFF cells	6.96
